For each record, write down the corresponding Percent Control.
Test system: PRKG2
measurement_setup: Compound Concentration (nM):1000;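 further: KINOMEscan scanMAX binding as percent activity remaining versus control; lower means stronger binding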
Numbers only, in %.

Solved entries:
CN(C)c1cc2c(Nc3ccc4c(cnn4Cc4ccccc4)c3)ncnc2cn1 [GW282974X]; 93
C[C@@H](Oc1cc(-n2cnc3ccc(OC4CCN(C)CC4)cc32)sc1C(N)=O)c1ccccc1Cl [GSK579289A]; 65
NS(=O)(=O)c1ccc(N/N=C2\C(=O)Nc3ccc(C(=O)NCCc4c[nH]cn4)cc32)cc1 [GW300660X]; 49
CC1=C(C(=O)Nc2ccc3[nH]ncc3c2)C(c2ccc3ccccc3c2)CC(=O)N1 (centres unmarked) [GSK270822A]; 29
COc1cc(C)c(N(C)C(=O)CN(C)C)cc1Nc1nc(Nc2cccc(F)c2C(N)=O)c2cc[nH]c2n1 [GSK2219385]; 82

For the 3 molecules below, give their Percent Control values.
1. COc1cc(C=NNc2ncnc3c2cnn3-c2ccccc2)ccc1O [GW513184X]
2. CCc1ccc(Oc2nccc(-c3c(-c4ccc(F)cc4)ncn3C3CCNCC3)n2)cc1 [SB-242719]
3. Cl.O=S1CCN(Cc2ccc(-c3ccc4ncnc(Nc5ccc(OCc6ccccc6)c(F)c5)c4c3)o2)CC1 [GW576924A]

1. 100
2. 92
3. 100

----------
Tested on: PRKCE
measurement_setup: Compound Concentration (nM):1000
experimental_readout: Percent Control (%)
Give bare numbers, in %.

# annotated cases, reported Percent Control shown
CN(C)CCNC(=O)Nc1ccc(N(C)c2ccnc(Nc3ccc(CS(C)(=O)=O)cc3)n2)cc1.Cl [GW830900A]; 100
COc1cccc(-c2c[nH]c3c(N/N=C/c4ccncc4)ncnc23)c1 [GW814408X]; 100
COc1cc2ncnc(Nc3ccc4c(cnn4Cc4ccccc4)c3)c2cc1OC.Cl [GW282449A]; 64
COc1ccccc1-c1cc(/C=C2\C(=O)Nc3ncc(Br)cc32)cc(Br)c1O [GW442130X]; 100
Cc1cc(O)cc(C)c1/C=C/c1cncc(C(N)=O)c1 [GW435821X]; 93

Respectfully, I request Percent Control for each entry included below.
1. COc1cc2ncn(-c3cc(O[C@H](C)c4ccccc4Cl)c(C(N)=O)s3)c2cc1OC [GSK237701A]
2. O=C(Nc1n[nH]c2nc(-c3ccc(O)cc3)c(Br)cc12)C1CC1 [SB-725317]
3. NS(=O)(=O)c1ccc(N/N=C2\C(=O)Nc3ccc(C(=O)NCCc4c[nH]cn4)cc32)cc1 [GW300660X]

1: 91; 2: 46; 3: 98

----------
System: SGK3
measurement_setup: Compound Concentration (nM):1000
Just a reminder that ties go to condition not met: only Percent Control strictly below 80% counts as condition met.

Some solved entries appear below for comparison.
COc1ccc2cc(-c3c(-c4ccncc4)nc(-c4ccc(S(C)(=O)=O)cc4C)n3C)ccc2c1; condition met
CC1=C(C(=O)Nc2ccc3[nH]ncc3c2)C(c2ccc3ccccc3c2)CC(=O)N1 (stereo not shown) [GSK270822A]; condition met
Cc1cc(O)cc(C)c1/C=C/c1cncc(C(N)=O)c1 [GW435821X]; condition not met
O=C(Nc1n[nH]c2nc(-c3ccc(O)cc3)c(Br)cc12)C1CC1; condition not met
CCn1c(-c2nonc2N)nc2c(C#CC(C)(C)O)nc(OCCNC)cc21.Cl; condition not met
NS(=O)(=O)c1ccc(N/N=C2\C(=O)Nc3ccc(Cl)cc32)cc1 [GW280670X]; condition met

Find out if reported Percent Control for NS(=O)(=O)c1ccc(N/N=C2\C(=O)Nc3ccc(C(=O)NCc4ccncc4)cc32)cc1 [GW300657X] is less than 80%
condition met

Consider the compound COc1cccc(-n2ncc3c(N/N=C/c4ccncc4)ncnc32)c1 [GW784752X] . Is its Percent Control strictly less than 80%?
condition met

Below 80% on Percent Control? Entry COc1cc(N2CCN(C(C)C)CC2)ccc1Nc1nc(Nc2ccc(F)cc2C(=O)NC[C@@H](O)CO)c2cc[nH]c2n1 [GSK1392956A]
condition not met

In plain terms, does CN(C)CCNC(=O)Nc1ccc(N(C)c2ccnc(Nc3ccc(CS(C)(=O)=O)cc3)n2)cc1.Cl [GW830900A] come in under 80% for Percent Control?
condition not met

Strictly below 80% in Percent Control? COc1cc2ncnc(Nc3ccc4c(cnn4Cc4ccccc4)c3)c2cc1OC.Cl [GW282449A]
condition not met

Lab note: confirm whether the reported Percent Control for this compound is below 80%, equality not counting. compound: COc1ccc(COc2ccc(Cc3cnc(N)nc3N)cc2OC)cc1 [GW632580X]
condition met

is_below(Percent Control, 80%) for COc1cccc(-c2c[nH]c3c(N/N=C/c4ccncc4)ncnc23)c1 [GW814408X] ?
condition met

Quick check: does COc1ccc2[nH]c3c4[nH]c5ccc(OC)cc5c4c4c(c3c2c1)C(=O)NC4=O [GW296115X] have Percent Control under 80%?
condition met

Answer whether the compound Cl.O=C(Nc1ccc(Oc2ccc3[nH]c(NC(=O)c4ccccc4)nc3c2)cc1)Nc1cc(C(F)(F)F)ccc1F [GW709042A] has Percent Control strictly less than 80%
condition not met

Quick check: Percent Control of COc1cc(C)c(N(C)C(=O)CN(C)C)cc1Nc1nc(Nc2cccc(F)c2C(N)=O)c2cc[nH]c2n1 under 80%?
condition not met

Could you please tell me whether Percent Control recorded for CCc1ccc(Oc2nccc(-c3c(-c4ccc(F)cc4)ncn3C3CCNCC3)n2)cc1 is less than 80%?
condition met

Report whether reported Percent Control is lower than 80% (strictly) for C[C@@H](Oc1cc(-n2cnc3ccc(OC4CCN(C)CC4)cc32)sc1C(N)=O)c1ccccc1Cl [GSK579289A]
condition not met

Criterion: Percent Control strictly below 80%. Is it met by COc1cc2ncn(-c3cc(O[C@H](C)c4ccccc4Cl)c(C(N)=O)s3)c2cc1OC [GSK237701A] ?
condition met
